Listing of entries alongside the reported logD.
assay: Lipophilicity, logD of the compound at pH 7.4; assay type: physicochemical; conditions: buffer
reportedMetric: logD

[[record]]
molecule = "COc1ccc2c(c1)CC(Nc1cc(C)nc3nc(C(C)(F)F)nn13)CC2 (stereo in doubt; 16)"
valuereported = 3.3

[[record]]
molecule = "Cc1cc(NC2CCc3cc(Br)ccc3C2)n2nc(C(C)(F)F)nc2n1 (stereo in doubt)"
valuereported = 4

[[record]]
molecule = "Cc1cc(N[C@H]2CCc3ccc(Cl)cc3C2)n2nc(C(C)(F)F)nc2n1"
valuereported = 3.9

[[record]]
molecule = "Cc1cc(NC2CCc3cc(C(F)(F)F)c(F)cc3C2)n2nc(C(C)(F)F)nc2n1 (stereo unspecified)"
valuereported = 4.1

[[record]]
molecule = "Cc1cc(NC2CCc3ccc(Br)cc3C2)n2nc(C(C)(F)F)nc2n1 (stereo in doubt)"
valuereported = 4

[[record]]
molecule = "Cc1cc(NC2CCc3cc(F)ccc3C2)n2nc(C(C)(F)F)nc2n1 (stereo unspecified)"
valuereported = 3.5

[[record]]
molecule = "Cc1cc(NC2Cc3c(C)ccc(C)c3C2)n2nc(C(C)(F)F)nc2n1"
valuereported = 3.8

[[record]]
molecule = "Cc1cc(NC2Cc3cccc(F)c3C2)n2nc(C(C)(F)F)nc2n1 (stereo unspecified)"
valuereported = 3.3

[[record]]
molecule = "Cc1cc(NC2Cc3ccccc3C2)n2nc(C(C)(F)F)nc2n1"
valuereported = 3.1

[[record]]
molecule = "Cc1cc(NC2CCc3cc(F)c(C(F)(F)F)cc3C2)n2nc(C(C)(F)F)nc2n1 (stereo unspecified)"
valuereported = 4

[[record]]
molecule = "Cc1cc(NC2CCc3cc(Cl)ccc3C2)n2nc(C(C)(F)F)nc2n1 (stereo in doubt)"
valuereported = 3.9

[[record]]
molecule = "Cc1cc(NC2Cc3cccc(C(F)(F)F)c3C2)n2nc(C(C)(F)F)nc2n1 (stereo unspecified)"
valuereported = 3.7

[[record]]
molecule = "Cc1cc(NC2CCc3ccc(Cl)cc3C2)n2nc(C(F)(F)F)nc2n1 (stereo in doubt; 24)"
valuereported = 4.1

[[record]]
molecule = "Cc1cc(NC2Cc3c(F)ccc(F)c3C2)n2nc(C(C)(F)F)nc2n1"
valuereported = 3.2

[[record]]
molecule = "Cc1cc(NC2Cc3cc(F)c(F)cc3C2)n2nc(C(C)(F)F)nc2n1"
valuereported = 3.4

[[record]]
molecule = "Cc1cc(NC2Cc3ccc(Cl)cc3C2)n2nc(C(C)(F)F)nc2n1 (stereo unspecified)"
valuereported = 3.5


----------
test: Oral bioavailability in Sprague-Dawley rat at 18.3 mg/kg measured over 24 hrs by LC-MS analysis; type: ADME, organism-based; conditions: in vivo
reportedMetric: bioavailability

[[record]]
compound = "Cc1cc(NC2CCc3ccc(Br)cc3C2)n2nc(C(C)(F)F)nc2n1 (stereo in doubt)"
reportedmetric = "bioavailability"
valuereported = "86%"


----------
assay: Intrinsic clearance in rat liver microsomes assessed per mg protein at 1 uM by LC-MS analysis; type: ADME, Microsome; conditions: microsomes, 1 µM
Assign labels as follows, please: rule met for Intrinsic clearance in rat liver microsomes (uL/min/mg protein) below 40 µL/min; rule not met for Intrinsic clearance in rat liver microsomes (uL/min/mg protein) equal to or exceeding 40 µL/min.

[[record]]
compound = "Cc1cc(NC2Cc3c(F)ccc(F)c3C2)n2nc(C(C)(F)F)nc2n1"
labelvalue = "rule not met"

[[record]]
compound = "Cc1cc(NC2CCc3cc(Cl)ccc3C2)n2nc(C(C)(F)F)nc2n1 (stereo in doubt)"
labelvalue = "rule met"

[[record]]
compound = "Cc1cc(NC2CCc3cc(C(F)(F)F)c(F)cc3C2)n2nc(C(C)(F)F)nc2n1 (stereo unspecified)"
labelvalue = "rule met"

[[record]]
compound = "Cc1cc(NC2Cc3ccc(Cl)cc3C2)n2nc(C(C)(F)F)nc2n1 (stereo unspecified)"
labelvalue = "rule not met"

[[record]]
compound = "Cc1cc(NC2CCc3cc(F)c(F)cc3C2)n2nc(C(C)(F)F)nc2n1 (stereo in doubt; 19)"
labelvalue = "rule met"

[[record]]
compound = "Cc1cc(NC2CCc3cc(F)c(C(F)(F)F)cc3C2)n2nc(C(C)(F)F)nc2n1 (stereo unspecified)"
labelvalue = "rule met"

[[record]]
compound = "Cc1cc(NC2Cc3cccc(C(F)(F)F)c3C2)n2nc(C(C)(F)F)nc2n1 (stereo unspecified)"
labelvalue = "rule not met"

[[record]]
compound = "COc1ccc2c(c1)CC(Nc1cc(C)nc3nc(C(C)(F)F)nn13)CC2 (stereo in doubt; 16)"
labelvalue = "rule met"

[[record]]
compound = "Cc1cc(NC2CCc3cc(Br)ccc3C2)n2nc(C(C)(F)F)nc2n1 (stereo in doubt)"
labelvalue = "rule met"

[[record]]
compound = "Cc1cc(NC2Cc3cc(F)c(F)cc3C2)n2nc(C(C)(F)F)nc2n1"
labelvalue = "rule met"

[[record]]
compound = "Cc1cc(N[C@H]2CCc3ccc(Cl)cc3C2)n2nc(C(C)(F)F)nc2n1"
labelvalue = "rule met"

[[record]]
compound = "Cc1cc(NC2Cc3cccc(F)c3C2)n2nc(C(C)(F)F)nc2n1 (stereo unspecified)"
labelvalue = "rule not met"

[[record]]
compound = "Cc1cc(NC2Cc3c(C)ccc(C)c3C2)n2nc(C(C)(F)F)nc2n1"
labelvalue = "rule not met"

[[record]]
compound = "Cc1cc(NC2Cc3ccccc3C2)n2nc(C(C)(F)F)nc2n1"
labelvalue = "rule not met"


----------
experiment: AUC (0 to infinity) in Sprague-Dawley rat at […], iv by LC-MS analysis; assay type: ADME, organism-based; parameters: time infinity, route intravenous, dose 2.6 mg/kg; conditions: in vivo
reportedMetric: AUC(0-inf) (µM·h)

[[record]]
testsmiles = "Cc1cc(Nc2ccc(S(F)(F)(F)(F)F)cc2)n2nc(C(C)(F)F)nc2n1"
valuereported = 17.4


----------
Listing of entries alongside the reported IC50.
target: UniProt:P05177; test: Inhibition of CYP1A2 in human liver microsomes using isoform-specific probe substrate in presence of NADPH-generating system by LC-MS analysis
Sequence (P05177 whole entry, canonical isoform): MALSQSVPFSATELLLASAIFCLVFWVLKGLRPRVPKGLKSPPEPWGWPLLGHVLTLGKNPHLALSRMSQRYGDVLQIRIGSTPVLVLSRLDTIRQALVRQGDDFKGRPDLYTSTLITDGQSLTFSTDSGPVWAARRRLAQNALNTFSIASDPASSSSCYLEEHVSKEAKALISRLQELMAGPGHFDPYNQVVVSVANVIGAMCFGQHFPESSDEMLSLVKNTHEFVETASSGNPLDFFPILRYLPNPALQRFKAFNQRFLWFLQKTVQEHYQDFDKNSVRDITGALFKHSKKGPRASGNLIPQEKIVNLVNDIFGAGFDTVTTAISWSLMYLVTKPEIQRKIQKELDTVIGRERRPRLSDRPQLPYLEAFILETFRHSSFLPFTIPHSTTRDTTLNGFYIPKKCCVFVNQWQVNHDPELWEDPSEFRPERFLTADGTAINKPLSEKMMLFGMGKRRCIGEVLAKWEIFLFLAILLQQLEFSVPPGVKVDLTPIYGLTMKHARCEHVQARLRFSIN
reportedMetric: IC50

[[record]]
testsmiles = "Cc1cc(NC2Cc3cc(F)c(F)cc3C2)n2nc(C(C)(F)F)nc2n1"
valuereported = "> 20 µM"

[[record]]
testsmiles = "Cc1cc(N[C@H]2CCc3ccc(Cl)cc3C2)n2nc(C(C)(F)F)nc2n1"
valuereported = "> 20 µM"


----------
biological target: Cytochrome P450 2C19 (Homo sapiens, UniProt P33261); test: Inhibition of CYP2C19 in human liver microsomes using isoform-specific probe substrates in presence of NADPH-generating system by LC-MS analysis; assay type: ADME; conditions: read-out: IC50
Sequence (P33261 whole entry, canonical isoform): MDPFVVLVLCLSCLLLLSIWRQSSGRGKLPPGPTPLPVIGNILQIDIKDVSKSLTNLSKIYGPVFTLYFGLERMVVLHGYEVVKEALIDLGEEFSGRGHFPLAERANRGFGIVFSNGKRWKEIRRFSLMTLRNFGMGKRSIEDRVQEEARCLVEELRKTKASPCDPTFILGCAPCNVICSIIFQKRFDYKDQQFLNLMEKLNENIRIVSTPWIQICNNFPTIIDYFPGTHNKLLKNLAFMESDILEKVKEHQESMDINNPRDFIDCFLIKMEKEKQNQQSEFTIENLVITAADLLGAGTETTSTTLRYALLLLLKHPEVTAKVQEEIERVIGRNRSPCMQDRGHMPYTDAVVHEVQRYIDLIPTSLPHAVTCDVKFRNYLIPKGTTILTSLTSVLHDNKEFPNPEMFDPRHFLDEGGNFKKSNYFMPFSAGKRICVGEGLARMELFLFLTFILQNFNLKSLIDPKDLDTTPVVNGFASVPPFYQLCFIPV
pIC50: −log10 of the molar value.
reportedMetric: pIC50

[[record]]
testsmiles = "Cc1cc(N[C@H]2CCc3ccc(Cl)cc3C2)n2nc(C(C)(F)F)nc2n1"
valuereported = "< 4.70"

[[record]]
testsmiles = "Cc1cc(NC2Cc3cc(F)c(F)cc3C2)n2nc(C(C)(F)F)nc2n1"
valuereported = "< 4.70"


----------
assay: Unbound AUC (0 to infinity) in Swiss mouse at 20 mg/kg, po administered as single dose via gavage measured over 24 hrs by LC-MS analysis; assay type: ADME, organism-based; details: in vivo
reportedMetric: fAUC

[[record]]
compound = "Cc1cc(NC2Cc3cc(F)c(F)cc3C2)n2nc(C(C)(F)F)nc2n1"
reportedmetric = "fAUC"
valuereported = "7.9 µM·h"

[[record]]
compound = "Cc1cc(NC2CCc3cc(Cl)ccc3C2)n2nc(C(C)(F)F)nc2n1 (stereo in doubt)"
reportedmetric = "fAUC"
valuereported = "0.16 µM·h"

[[record]]
compound = "Cc1cc(N[C@H]2CCc3ccc(Cl)cc3C2)n2nc(C(C)(F)F)nc2n1"
reportedmetric = "fAUC"
valuereported = "0.59 µM·h"

[[record]]
compound = "Cc1cc(NC2CCc3ccc(Br)cc3C2)n2nc(C(C)(F)F)nc2n1 (stereo in doubt)"
reportedmetric = "fAUC"
valuereported = "0.47 µM·h"

[[record]]
compound = "Cc1cc(NC2CCc3cc(Br)ccc3C2)n2nc(C(C)(F)F)nc2n1 (stereo in doubt)"
reportedmetric = "fAUC"
valuereported = "0.41 µM·h"


----------
Listing of entries alongside the reported fCmax.
test: Unbound Cmax in Swiss mouse at 20 mg/kg, po administered as single dose via gavage measured over 24 hrs by LC-MS analysis; type: ADME, organism-based; conditions: in vivo
reportedMetric: fCmax (µM)

[[record]]
molecule = "Cc1cc(NC2Cc3cc(F)c(F)cc3C2)n2nc(C(C)(F)F)nc2n1"
valuereported = 1.4

[[record]]
molecule = "Cc1cc(N[C@H]2CCc3ccc(Cl)cc3C2)n2nc(C(C)(F)F)nc2n1"
valuereported = 0.13

[[record]]
molecule = "Cc1cc(NC2CCc3cc(Br)ccc3C2)n2nc(C(C)(F)F)nc2n1 (stereo in doubt)"
valuereported = 0.07

[[record]]
molecule = "Cc1cc(NC2CCc3ccc(Br)cc3C2)n2nc(C(C)(F)F)nc2n1 (stereo in doubt)"
valuereported = 0.13

[[record]]
molecule = "Cc1cc(NC2CCc3cc(Cl)ccc3C2)n2nc(C(C)(F)F)nc2n1 (stereo in doubt)"
valuereported = 0.06

